Provenance of the data: paper PMC3722857

molecular target: full-length AR (Homo sapiens); test: AR transient transfection MMTV-luciferase assay, antagonist mode; conditions: AR antagonist IC50, CV1 cells
Sequence (P10275 whole entry): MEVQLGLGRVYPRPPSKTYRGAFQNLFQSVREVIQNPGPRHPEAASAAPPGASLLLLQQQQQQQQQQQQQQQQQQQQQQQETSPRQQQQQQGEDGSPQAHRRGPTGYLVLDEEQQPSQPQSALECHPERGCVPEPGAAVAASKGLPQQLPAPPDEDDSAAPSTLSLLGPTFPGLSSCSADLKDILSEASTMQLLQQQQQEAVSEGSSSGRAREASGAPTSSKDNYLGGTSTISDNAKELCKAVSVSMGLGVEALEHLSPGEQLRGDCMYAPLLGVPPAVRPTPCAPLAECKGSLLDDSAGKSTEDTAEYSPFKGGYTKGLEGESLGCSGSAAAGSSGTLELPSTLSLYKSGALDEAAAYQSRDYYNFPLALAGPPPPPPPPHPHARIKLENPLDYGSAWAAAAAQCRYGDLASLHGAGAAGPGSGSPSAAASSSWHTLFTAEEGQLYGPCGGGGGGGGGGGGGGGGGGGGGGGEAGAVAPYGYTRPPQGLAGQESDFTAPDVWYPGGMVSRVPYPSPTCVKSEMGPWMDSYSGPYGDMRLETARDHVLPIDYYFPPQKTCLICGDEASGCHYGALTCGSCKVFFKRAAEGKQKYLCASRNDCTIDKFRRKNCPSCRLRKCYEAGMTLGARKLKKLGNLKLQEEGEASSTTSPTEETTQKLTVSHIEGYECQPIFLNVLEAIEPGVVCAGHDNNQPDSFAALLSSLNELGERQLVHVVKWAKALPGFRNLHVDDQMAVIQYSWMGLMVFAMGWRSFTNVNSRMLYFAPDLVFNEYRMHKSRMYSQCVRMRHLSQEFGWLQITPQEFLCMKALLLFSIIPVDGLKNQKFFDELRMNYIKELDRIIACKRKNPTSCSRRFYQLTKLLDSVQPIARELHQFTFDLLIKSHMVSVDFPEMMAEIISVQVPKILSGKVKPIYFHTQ
Readout Type: IC50

                    entry_smiles            value
0  CC(C)(c1ccc(O)cc1)c1ccc(O)cc1  1000 to 2000 nM

* * *

molecular target: full-length ERα (Homo sapiens); test: ERα transient transfection 3X-ERE-luciferase assay, agonist mode, CV1 cells; type: cell-based; settings: CV1 cells, in words
Sequence (P03372 whole entry): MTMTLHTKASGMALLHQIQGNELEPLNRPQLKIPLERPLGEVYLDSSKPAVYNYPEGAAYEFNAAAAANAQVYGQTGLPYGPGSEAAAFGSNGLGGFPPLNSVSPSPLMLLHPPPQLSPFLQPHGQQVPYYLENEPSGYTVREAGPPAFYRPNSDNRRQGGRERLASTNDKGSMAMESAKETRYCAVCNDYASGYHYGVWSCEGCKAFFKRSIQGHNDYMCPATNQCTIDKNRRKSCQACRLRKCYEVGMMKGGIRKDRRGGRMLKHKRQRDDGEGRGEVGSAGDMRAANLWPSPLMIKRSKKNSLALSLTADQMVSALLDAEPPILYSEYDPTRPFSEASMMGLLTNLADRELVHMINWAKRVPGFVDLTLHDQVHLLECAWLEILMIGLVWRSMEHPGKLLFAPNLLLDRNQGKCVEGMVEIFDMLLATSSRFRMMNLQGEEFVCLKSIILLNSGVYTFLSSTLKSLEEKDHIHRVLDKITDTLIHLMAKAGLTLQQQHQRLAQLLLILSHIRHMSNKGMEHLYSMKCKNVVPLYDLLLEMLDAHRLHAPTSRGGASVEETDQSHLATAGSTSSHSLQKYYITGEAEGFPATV
Readout Type: Effect on ERα transcriptional activity (activation)

>>> df
                                   compound                 target_of_assay          value
0  CC(C)(O)C(=O)Nc1ccc([N+](=O)[O-])c(C(F)(F)F)c1 [OH-flutamide, hydroxyflutamide, reference compound]  full-length ERα (Homo sapiens)  had no effect
1  C[C@]1(O)CC[C@H]2[C@@H]3CCC4=CC(=O)CCC4=C3C=C[C@@]21C [R1881, methyltrienolone, reference compound]  full-length ERα (Homo sapiens)  had no effect
